test-method-notes: Oral toxicity (mortality) in the mouse, Table 1
Assay type: in vivo
condition-summary: mouse, in vivo, po, 1500 mg/kg, Swiss mice, 14 days
Procedure: The mortality percentages caused by the products of the present invention administered orally to Swiss mice are shown in Table 1. The animals, free of specific pathological organism were housed in an air conditioned room from 24 to 48 hours before the start of the experiments. They were divided up into lots of 5 males and 5 females. […] The mortality was recorded at 14 days. […]
Answer each item with its documented mortality at 336 h.
Answers are plain numbers, in %.

Okay, here is my list. What is mortality at 336 h for each of these?
1. CN(C)CCc1cc2c(cc1N=Cc1ccc(Cl)c(Cl)c1)OCO2 [COR 01 207]
2. CC(C)(C)NCCc1cc2c(cc1N=Cc1cccnc1)OCO2 [COR 01 195]
3. CN(C)CCc1cc2c(cc1N=Cc1ccc(Cl)cc1)OCO2 [COR 01 208]

[20, 20, 20]

====

Answer each item with its documented % of mortality.
Tested on: Swiss mice
test-method-notes: Oral toxicity (mortality) in the mouse, Table 1
Assay type: in vivo
condition-summary: 500 mg/kg, 14 days, 20160 min
Give bare numbers, in %.

Which measured % of mortality value corresponds to C(=Nc1cc2c(cc1CCN1CCCCC1)OCO2)c1cccnc1 [COR 01 202] ? 10

Which measured % of mortality value corresponds to CN(C)CCc1cc2c(cc1N=Cc1cccs1)OCO2 [COR 01 179] ? 90

Continuing:
Which measured % of mortality value corresponds to C(=Nc1cc2c(cc1CCN1CCCCC1)OCO2)c1cccnc1 [COR 01 174] ? 0

Entry source: patent US4333930A
